# System: SKOV3
# Assay name: Primary qHTS to identify gynecologic anti-cancer compounds using libraries of approved drugs and bioactive compounds (AID 1345084); further: nearly all actives have a fitted effect of over 55% in size; further: potency means the concentration at half of the fitted maximal effect
# Condition summary: Gynecologic cancer cell panel viability, ATPlite luminescence, 48 h; series mostly up to 57.5 µM
Inconclusive results are not listed. The source made the active and inactive calls. The call rests on the fitted dose curve; in most records, active means well fitted cell-killing curve with a large enough effect; inconclusive means small, poorly fitted or top-dose-only effect, or effect the other way; inactive means flat fitted curve, though single readings scatter.
Endpoint label: Potency

Consider the reported Potency for these molecules:
Nc1ccccc1NC(=O)c1ccc(CNc2nccc(-c3cccnc3)n2)cc1 = 3.98 µM (active)
CNC(=O)c1ccc(N2C(=S)N(c3cnc(C#N)c(C(F)(F)F)c3)C(=O)C23CCC3)cc1F = inactive
COc1ccc(-n2nc(C(N)=O)c3c2C(=O)N(c2ccc(N4CCCCC4=O)cc2)CC3)cc1 = inactive
CC(=O)Nc1nc(C)c(-c2ccc(Cl)c(S(=O)(=O)NCCO)c2)s1 = 11.2 µM (active)
NC(=O)Nc1cc(-c2cccc(F)c2)sc1C(=O)N[C@H]1CCCNC1 = 0.631 µM (active)
Clc1cccc(-c2nnnn2Cc2cccnc2)c1Cl = inactive
NCC(=O)Nc1ccc(-n2nc(C(F)(F)F)cc2-c2ccc3c(ccc4ccccc43)c2)cc1 = inactive
COC(=O)c1ccc2c(C(=Nc3ccc(N(C)C(=O)CN4CCN(C)CC4)cc3)c3ccccc3)c(O)[nH]c2c1 = inactive
Cc1nc2ccc(CN(C)c3ccc(C(=O)N[C@@H](CCC(=O)O)C(=O)O)s3)cc2c(=O)[nH]1 = inactive
Cc1c(CN2CCN(S(C)(=O)=O)CC2)sc2c(N3CCOCC3)nc(-c3cnc(N)nc3)nc12 = 0.562 µM (active)

Quick request: Potency for each listed item, please.
1. OCc1ccc(-c2ccc(-c3ccc(CO)s3)o2)s1
2. COc1cc(Nc2ncc(F)c(Nc3ccc4c(n3)N(COP(=O)(O)O)C(=O)C(C)(C)O4)n2)cc(OC)c1OC
3. Clc1ccc2ncc(-c3cccc(NC4CNC4)n3)n2c1
4. CN(C)Cc1c(C(=O)NCCOc2ccc(C(=O)NO)cc2)oc2ccccc12
5. CCCCCN(CCC12CC3CC(CC(C3)C1)C2)C(=O)NCCCc1ccncc1
6. CCn1nnc2c(N3CCOCC3)nc(-c3ccc(NC(=O)Nc4ccc(C(=O)N5CCN(C)CC5)cc4)cc3)nc21
7. CNc1nccc(-c2cccnc2Oc2cc(C(=O)Nc3cccc(C(F)(F)F)c3)ccc2C)n1

1. 12.6 µM (active)
2. 10 µM (active)
3. inactive
4. 7.08 µM (active)
5. inactive
6. 0.316 µM (active)
7. 28.2 µM (active)

Okay, here is my list. What is Potency for each of these?
1. Nc1cccc(-c2cc3c(Oc4cccc(O)c4)ncnc3[nH]2)c1
2. CC(C)Nc1cc(C(F)(F)F)cc2nc(NC(=O)c3cccnc3)nn12
3. CC1(O)CC(c2nc(-c3ccc4ccc(-c5ccccc5)nc4c3)c3c(N)nccn23)C1 (stereo not drawn)
4. Cc1c(Cn2c(C)nc3c(C(=O)O)cc(N4CCOCC4)cc32)cccc1C(F)(F)F
5. C1Cc2[nH]nc(-c3nn[nH]n3)c2C1
6. Cc1cc(Nc2ncnc3ccc(-c4ccc(CNCCS(C)(=O)=O)o4)cc23)ccc1Oc1ccn2ncnc2c1
7. Cc1nc(Nc2n[nH]c3c2CN(C(=O)N[C@H](CN(C)C)c2ccccc2)C3(C)C)c2sccc2n1

1: 3.98 µM (active); 2: inactive; 3: inactive; 4: inactive; 5: inactive; 6: inactive; 7: 7.08 µM (active)

Each molecule below has a reported value. Please supply its Potency.
1. CCCNC(=O)Nc1ccc(Oc2ncnc3cc(OC)c(OC)cc23)cc1Cl
2. Cc1cc(CN2CCN(c3c(Br)cnc4nc(-c5ccc(N6CCN(C)CC6)cc5)[nH]c34)CC2)no1
3. Cn1c(CNc2ccc(C(=N)N)cc2)nc2cc(C(=O)N(CCC(=O)O)c3ccccn3)ccc21
4. COc1cccc(Nc2c(C(N)=O)cnc3c(C)cc(S(=O)(=O)c4cccc(C(=O)N(C)C)c4)cc23)c1
5. COC(=O)Nc1ccc(-c2nc(N3CCOCC3)c3cnn(C4CCN(Cc5cccnc5)CC4)c3n2)cc1
6. COc1cc2c(NC3CCN(C(C)C)CC3)nc(C3CCCCC3)nc2cc1OCCCN1CCCC1
7. CCOc1ccccc1OCCNC(C)Cc1ccc(OC)c(S(N)(=O)=O)c1 (stereo not drawn)
8. COc1cc2c(Oc3ccc(-c4cnc(Nc5ccc(F)cc5)n(C)c4=O)cc3F)ccnc2cc1OCCCN1CCOCC1

1: inactive; 2: inactive; 3: inactive; 4: inactive; 5: 2 µM (active); 6: 12.6 µM (active); 7: inactive; 8: inactive

###

# System: UISO
# Assay name: qHTS assay to identify novel small-molecules to repurpose for Merkel cell carcinoma treatment (AID 1296009); further: nearly all actives have a fitted effect of over 60% in size
# Condition summary: MCC and control cell lines, CellTiter-Glo viability, 72 h; series mostly up to 46 µM
Records with an inconclusive call do not appear. The source made the active and inactive calls. Calls come from the whole dose curve; as a rule, active = well fitted inhibition curve with a large enough effect; inconclusive = small, poorly fitted or top-dose-only effect; inactive = flat fitted curve, though single readings scatter.
Your answer must be one of the following: active, inactive

COc1cc(-c2nn(C3CCC(N4CCN(C(C)=O)CC4)CC3)c3ncnc(N)c23)ccc1NC(=O)c1cc2ccccc2n1C (stereo not drawn) = active
C[C@]1(CO)CN(c2cc(C(=O)Nc3ccc4c(c3)-c3c(c(C(N)=O)nn3-c3ccc(F)cc3)CC4)c(Cl)cn2)C[C@@]1(C)CO = active
O=C(NCCCNc1nc(Nc2cccc(NC(=O)N3CCCC3)c2)ncc1I)c1cccs1 = active
O=c1[nH]c(=O)n(C2CCCO2)cc1F (stereo not drawn) = inactive

Hello, I am checking results. What call was entered for NC(=O)Nc1cc(-c2cccc(F)c2)sc1C(=O)N[C@H]1CCCNC1 ? active

// param item: Cc1ccc(C(N)=O)cc1Nc1nccc(-c2cn(C(C)C)c3cnccc23)n1 ; yields the recorded call active

Look up the recorded call for C1=CCOCc2cc(ccc2OCCN2CCCC2)Nc2nccc(n2)-c2cccc(c2)OCC1 in this test. active

Tell me the recorded outcome of this test for CN1CC[C@@H](c2c(O)cc(O)c3c(=O)cc(-c4ccccc4Cl)oc23)[C@@H](O)C1 . active

Kindly provide the recorded test outcome for the following compound: O=C(Nc1cn[nH]c1-c1nc2ccc(CN3CCOCC3)cc2[nH]1)NC1CC1 active

For Cn1c2ccccc2c2c3c(c4c5ccccc5n(CCC#N)c4c21)CNC3=O , what call appears in the results of this test? active

In this assay, the call recorded for C[C@@]12O[C@@H](C[C@]1(O)CO)n1c3ccccc3c3c4c(c5c6ccccc6n2c5c31)CNC4=O was what? active

What call does the record list for CC=C1NC(=O)[C@H]2CSSCCC=C[C@H](CC(=O)N[C@H](C(C)C)C(=O)N2)OC(=O)[C@H](C(C)C)NC1=O ? active

Any idea what this test logged for CN1CCN(c2cc(C(=O)Nc3ccc4c(c3)-c3c(c(C(N)=O)nn3-c3ccc(F)cc3)CC4)c(Cl)cn2)CC1 ? inactive

Which outcome was entered for the compound CC(C)CC(=O)Nc1n[nH]c2c1CN(C(=O)C1CCN(C)CC1)C2(C)C in this test? active

Recorded test call requested for CCN1CCN(Cc2ccc(-c3cc4c(N[C@H](C)c5ccccc5)ncnc4[nH]3)cc2)CC1 active

Lab log entry: COc1cc(C(C)C)c2c(c1)S(=O)(=O)N(COc1cc(=O)n3cccc(OCCN4CCCCC4)c3n1)C2=O — outcome as called in the assay? inactive

###

# Test system: Nanoluciferase (engineered Oplophorus gracilirostris luciferase)
# Assay name: Primary Nanoluciferase (NLuc) qHTS assay for identification of artifact compounds. (AID 1845222);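 further: NLuc secreted into diluted conditioned medium of S16 cells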
# Condition summary: NLuc-conditioned medium, Nano-Glo luminescence, 5 min; series mostly up to 54.1 µM
Activity calls are given as the source filed them. The call rests on the fitted dose curve; in most records, active means well fitted inhibition curve with a large enough effect; inconclusive means small, poorly fitted or top-dose-only effect; inactive means flat fitted curve, though single readings scatter.
Use one of these outcomes when replying: active, inactive

Worked examples, 3 compounds total:
C=CC(=O)N1CCC[C@@H](n2nc(-c3ccc(Oc4ccccc4)cc3)c3c(N)ncnc32)C1 = inactive
OCCCNc1cc(-c2ccnc(Nc3cccc(Cl)c3)n2)ccn1 = inactive
Cn1c(=O)n(-c2ccc(C(C)(C)C#N)cc2)c2c3cc(-c4cnc5ccccc5c4)ccc3ncc21 = inactive

I'd appreciate the recorded outcome for NCC(=O)Nc1ccc(-n2nc(C(F)(F)F)cc2-c2ccc3c(ccc4ccccc43)c2)cc1 from this test. inactive

Record lookup: outcome of this test for COCCOc1ccc2c(c1)ncn2-c1ccc2cccc(N3CCC(N)CC3)c2n1 ? inactive

Assay result, entry CCCCOc1c(C(=O)c2c(F)cc(C)cc2F)cnc2n[nH]cc12 — outcome? inactive

###

# Assay name: qHTS of pediatric cancer cell lines to identify multiple opportunities for drug repurposing: Confirmatory screen for BT-12 cells (AID 1347112);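 further: viability read after 48 h of compound exposure; nearly all actives have a fitted effect of over 55% in size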
# Condition summary: BT-12 rhabdoid tumor cells, viability; series mostly up to 45.9 µM
Results filed as inconclusive are left out. Calls of active or inactive are those of the source. The call rests on the fitted dose curve; in most records, active means well fitted cell-killing curve with a large enough effect; inconclusive means small, poorly fitted or top-dose-only effect; inactive means flat fitted curve, though single readings scatter.
Just give me one of these, please: active, inactive

Consider the worked cases shown below.
CN(C)CCCN=c1c2ccccc2n(C)c2[nH]c(=O)n(C)c(=O)c12 = active
CCOc1cc2ncc(C#N)c(Nc3ccc(F)c(Cl)c3)c2cc1NC(=O)C=CCN(C)C = active
COc1ccc(-n2nc(C(N)=O)c3c2C(=O)N(c2ccc(N4CCCCC4=O)cc2)CC3)cc1 = inactive

Next, consider the following compound.
Lab log entry: CC(C)(C)OC(=O)Nc1ccc(-c2cc(C(=O)NCCCCCCC(=O)NO)no2)cc1 — outcome as called in the assay? active
